Values compiled from PubChem BioAssay.

- ASSAY NAME: JC-1 mitochondrial signal, unstimulated HepG2 cells – cell-based, JC-1 fluorescence, 24 h, 100 nL compound, profiling panel (AID 1167); also: test concentration not given here
- EXPERIMENTAL SETUP: HepG2 mitochondrial potential, higher = more signal
What z-score was measured for each of the following?
Could you keep your reply to the number by itself?

Give me measured z-score, please, for this molecule: COC(=O)[C@@]1(Cc2ccc(F)cc2)[C@H]2c3cc(C(=O)N4CCCC4)n(CCc4ccccn4)c3C[C@H]2CN1C(=O)c1ccccc1
1.98

Give me measured z-score, please, for this molecule: CC(C)C[C@@H]1NC(=O)[C@@]23C(=O)N[C@@H](Cc4ccccc4)C2[C@H](C)[C@@]2(C)O[C@H]2C3/C=C/C/C=C\CNC(=O)CNC1=O (stereo partly drawn)
-0.572

Give me measured z-score, please, for this molecule: CC(C)C[C@@H]1NC(=O)[C@@H]2C[C@H](C(=O)NCCCCCCNC(=O)CS)[C@H](c3cccc(OCCO)c3)N2C1=O
-0.946

Give me measured z-score, please, for this molecule: CC(C)=C1C(=O)C(c2ccccc2)=C2CN3C(=O)N(CCc4ccccc4)C(=O)[C@]3(C)[C@H]21
1.87

Give me measured z-score, please, for this molecule: CC1CC/C=C\[C@H]2OC34C=CCN(C(C)(C)C)C(=O)[C@H]3N(CCCO)C(=O)[C@@H]4C2C(=O)O1 (stereo partly drawn)
-0.749

Give me measured z-score, please, for this molecule: COc1ccc(C(O)C2C=CC3C(=O)N(c4ccccc4)C(=O)C3N2Nc2ccc([N+](=O)[O-])cc2)c2ccccc12 (stereo not drawn)
-2.27

Give me measured z-score, please, for this molecule: CC(C)(C)N1CC=CC23O[C@@H]4C=CCOC(=O)[C@@H]4[C@H]2C(=O)N(CCO)[C@@H]3C1=O (stereo partly drawn)
-0.731

Give me measured z-score, please, for this molecule: O=C1OCCC=C[C@H]2OC34C=CCN(c5ccc6ccccc6c5)C(=O)[C@H]3N(CCO)C(=O)[C@@H]4C12 (stereo partly drawn)
-0.409

Give me measured z-score, please, for this molecule: C[N+](C)(C)CCCC[C@@H]1NC(=O)[C@@H]2C[C@H](C(=O)NCc3ccc(F)cc3)[C@H](c3ccc(O)cc3)N2C1=O
1.62

Give me measured z-score, please, for this molecule: O=C1C[C@@](C(=O)NC2CC2)(c2ccc([N+](=O)[O-])cc2)[C@@H](c2ccc(CO)cc2)N1C1CCCCC1
1.28

Give me measured z-score, please, for this molecule: CCC(CC)C(O)C1C=CC2C(=O)N(c3ccccc3)C(=O)C2N1Nc1ccccc1F (stereo not drawn)
0.387

Give me measured z-score, please, for this molecule: COc1ccc([Si](C)(C)[C@@H]2[C@@H](CC(=O)N(CCO)Cc3ccccc3)O[C@]3(C(=O)N(Cc4ccc(I)cc4)c4ccccc43)[C@H]2C)cc1
1.17

Give me measured z-score, please, for this molecule: COC(=O)C(CC#Cc1ccc2c(c1)[C@]1(C(=O)N2)[C@H](C(=O)NC[C@H](O)c2ccccc2)[C@H]2C(=O)O[C@H](c3ccccc3)[C@H](c3ccccc3)N2[C@@H]1c1ccccc1OCCO)C(=O)OC
-0.0353

Give me measured z-score, please, for this molecule: C=CCC(OC(C)=O)[C@@H]1[C@@H](N(Cc2cccc3ccccc23)C(=O)Cc2ccc(OC)cc2)c2cc(OCCCO)ccc2N1C(=O)Cc1ccc2ccccc2c1 (stereo partly drawn)
3

Give me measured z-score, please, for this molecule: C=CCC(OC(C)=O)[C@@H]1[C@@H](N(Cc2ccc(-c3ccccc3)cc2)C(=O)c2cccc3ccccc23)c2cc(OCCCO)ccc2N1C(=O)Cc1ccc(OC)cc1 (stereo partly drawn)
1.57

Give me measured z-score, please, for this molecule: C=C1C(=O)C=C2CN(C(=O)c3ccccc3)[C@@](Cc3ccc(OC)cc3)(C(=O)OC)[C@@H]12
0.971

Give me measured z-score, please, for this molecule: COCCOC(=O)N1C(=O)[C@@]2(c3cc(C#CCC(C(=O)OC)C(=O)OC)ccc31)[C@H](C(N)=O)[C@H]1C(=O)O[C@H](c3ccccc3)[C@H](c3ccccc3)N1[C@@H]2c1ccc(O)cc1
-0.864

Give me measured z-score, please, for this molecule: COC(=O)[C@@]1(Cc2ccccc2)[C@H]2c3cc(C(=O)N(C)C)n(Cc4ccc(S(C)(=O)=O)cc4)c3C[C@H]2CN1C(=O)c1ccccc1
2.64

Give me measured z-score, please, for this molecule: N#Cc1ccc(NN2C(C(O)C3CC=CCC3)C=CC3C(=O)N(c4ccccc4)C(=O)C32)cc1 (stereo not drawn)
-0.795

Give me measured z-score, please, for this molecule: C=C(C)[C@@H]1CC=C(C(O)C2C=CC3C(=O)N(c4ccccc4)C(=O)C3N2Nc2ccc([N+](=O)[O-])cc2)CC1 (stereo partly drawn)
-0.307

Give me measured z-score, please, for this molecule: C=C(COC)/C(=C/C[C@@H](OC(C)=O)c1ccccc1OCCO)c1cnc2ccccc2c1
0.23

Give me measured z-score, please, for this molecule: COCCCNC(=O)[C@@H]1c2ccccc2C(=O)N(Cc2ccc(OC(F)(F)F)cc2)[C@H]1c1ccc(CO)cc1
1.75

Give me measured z-score, please, for this molecule: O=C1O[C@@H](c2ccccc2)[C@@H](c2ccccc2)N2[C@@H](c3ccccc3OCCO)[C@]3(C(=O)Nc4ccc(C#CCCO)cc43)[C@@H](C(=O)NC[C@H](O)c3ccccc3)[C@H]12
-1.16

Give me measured z-score, please, for this molecule: COC(=O)[C@@]1(Cc2ccc(OC)cc2)[C@H]2c3cc(C(=O)N4CCCC4)n(Cc4c(CO)[nH]cc(C)c4=O)c3C[C@H]2CN1C(=O)c1ccccc1
2.94

Give me measured z-score, please, for this molecule: CC1CC/C=C\[C@H]2OC34C=CCN(Cc5ccccc5)C(=O)[C@H]3N(CCCCCCO)C(=O)[C@@H]4C2C(=O)O1 (stereo partly drawn)
0.0727

Give me measured z-score, please, for this molecule: CCCCCC1=C2CNC(Cc3ccccc3)(C(=O)OC)C=C2C(C)C1=O (stereo not drawn)
1.14

Give me measured z-score, please, for this molecule: COc1ccc(NN2C(C(O)c3ccc(I)cc3)C=CC3C(=O)N(C4CCCCC4)C(=O)C32)cc1 (stereo not drawn)
0.126

Give me measured z-score, please, for this molecule: COC(=O)[C@@]1(Cc2ccc(F)cc2)[C@H]2c3cc(C(=O)N(C)C)n(CCc4ccc(O)c(O)c4)c3C[C@H]2CN1C(=O)c1ccccc1
0.86

* * *

What composite z-score was measured for each of the following?
- ASSAY NAME: probe aNOTCH3 binding on compound microarray – biochemical, small-molecule microarray, 635/667 nm fluorescence, primary screen (AID 1120);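 also: probe is a biotin-tagged antibody raised against NOTCH3 rather than NOTCH3 protein; score merges spot fluorescence near 667 nm with spot signal to noise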
- EXPERIMENTAL SETUP: higher = more signal
Could you keep your reply to the number by itself?

Give me measured composite z-score, please, for this molecule: CCOc1cc(C(O)C2C=CC3C(=O)N(c4ccccc4)C(=O)C3N2Nc2ccccc2F)ccc1O (centres undefined)
0.533

Give me measured composite z-score, please, for this molecule: O=C1O[C@H](c2ccccc2)[C@H](c2ccccc2)N2[C@H]1[C@@H](C(=O)N1CCN(c3ncccn3)CC1)[C@]1(C(=O)Nc3ccc(C#CCCO)cc31)[C@H]2c1ccc(O)cc1
0.171

Give me measured composite z-score, please, for this molecule: CC1CC/C=C\[C@H]2OC34C=CCN(c5ccc(Cl)cc5)C(=O)[C@H]3N(CCCCCCO)C(=O)[C@]4(C)C2C(=O)O1 (some centres undefined)
-0.314

Give me measured composite z-score, please, for this molecule: COC(=O)[C@]1(CCC(=O)OC(C)(C)C)N=C(c2ccc(OCCCO)cc2)O[C@@H]1c1ccccc1N=[N+]=[N-]
-0.122

* * *

- ASSAY NAME: probe aEGFR binding to arrayed compounds – biochemical, biotinylated probe, 635/667 nm fluorescence, primary screen (AID 1097);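 also: probe is a biotinylated anti-EGFR antibody binding compounds printed on slides; score combines fluorescence near 667 nm and signal to noise of each spot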
- EXPERIMENTAL SETUP: small-molecule microarray, higher = more signal
MEASURED PROPERTY: composite z-score
Could you keep your reply to the number by itself?

Give me measured composite z-score, please, for this compound: Cc1ccc(S[C@]2(C(=O)NC3CC3)CC(=O)N(C(C)C)[C@@H]2c2ccc(CO)cc2I)cc1
-0.196

Give me measured composite z-score, please, for this compound: C=CCNC(=O)[C@@H]1[C@H]2C(=O)O[C@H](c3ccccc3)[C@H](c3ccccc3)N2[C@H](c2ccc(OCCO)cc2)[C@@]12C(=O)Nc1ccc(C#CC3(O)CCCCCC3)cc12
0.0519

Give me measured composite z-score, please, for this compound: CC(C)=CCCC(C)=CC(O)C1C=CC2C(=O)NC(=O)C2N1Nc1ccc(Cl)cc1Cl (centres undefined)
-0.0904

Give me measured composite z-score, please, for this compound: CC1CC/C=C\[C@H]2OC34C=CCN(Cc5ccccc5)C(=O)[C@H]3N(CCCCCCO)C(=O)[C@@H]4C2C(=O)O1 (some centres undefined)
-0.0773

Give me measured composite z-score, please, for this compound: CC(C)C(CO)N1C(=O)[C@@H]2C3C(=O)OCCC/C=C\[C@H]3OC23C=CCN(Cc2ccccc2)C(=O)[C@@H]13 (some centres undefined)
-0.148

Give me measured composite z-score, please, for this compound: C=CC[C@@]12N=C(c3ccc(OCCCO)cc3)O[C@@H]1c1ccccc1N(CCC)C2=O
-0.108

Give me measured composite z-score, please, for this compound: CC1=C([C@H](O)CCc2ccccc2)[C@H](CO)n2c(=O)n(-c3ccccc3)c(=O)n2C1
-0.211

Give me measured composite z-score, please, for this compound: O=C(NC1CC1)[C@@H]1c2ccccc2C(=O)N(Cc2cc(C(F)(F)F)cc(C(F)(F)F)c2)[C@H]1c1ccc(CO)cc1
-0.399

Give me measured composite z-score, please, for this compound: C=CCOC(=O)[C@@H]1[C@H]2C(=O)O[C@H](c3ccccc3)[C@H](c3ccccc3)N2[C@H](c2ccc(OCCOC(=O)[C@H]3C[C@H]4C(=O)NCC(=O)N4[C@H]3c3cccc(OCCO)c3)cc2)[C@@]12C(=O)Nc1ccc(I)cc12
0.0712

Give me measured composite z-score, please, for this compound: CN1C(=O)C2C(C1=O)C1C=C(CCCO)C2C(C2CC2)N1Cc1cccc(OC(F)(F)F)c1 (centres undefined)
-0.144

Give me measured composite z-score, please, for this compound: CC(C)N1C(=O)C[C@@](C(=O)NCCN2CCOCC2)(c2ccc([N+](=O)[O-])cc2)[C@H]1c1ccc(CO)cc1
-0.228

Give me measured composite z-score, please, for this compound: CN(C)CCCC[C@@H]1NC(=O)[C@@H]2C[C@H](C(=O)NCCCCCCNC(=O)CS)[C@H](c3ccc(O)cc3)N2C1=O
0.123

Give me measured composite z-score, please, for this compound: O=C1O[C@@H](c2ccccc2)[C@@H](c2ccccc2)N2[C@@H](c3ccc(OCCO)cc3)[C@]3(C(=O)Nc4ccc(C#CC5(O)CCCCCC5)cc43)[C@@H](C(=O)O)[C@H]12
-0.0828

Give me measured composite z-score, please, for this compound: C=C(COC)C(=O)CC[C@H](OC(=O)c1cccnc1)c1ccc(OCCO)cc1
-0.113

Give me measured composite z-score, please, for this compound: NCCCCCCNC(=O)[C@@H]1C[C@@H]2C(=O)N3CCC[C@H]3C(=O)N2[C@@H]1c1cccc(OCCO)c1
0.0713

Give me measured composite z-score, please, for this compound: O=C1c2ccccc2[C@@]2(Cc3ccccc3N(Cc3ccccc3)C2=O)[C@H](c2ccc(CO)cc2)N1Cc1ccccc1Cl
-0.146

Give me measured composite z-score, please, for this compound: COCCOC(=O)N1C(=O)[C@@]2(c3cc(C#CCC(C(=O)OC)C(=O)OC)ccc31)[C@H](C(N)=O)[C@H]1C(=O)O[C@H](c3ccccc3)[C@H](c3ccccc3)N1[C@@H]2c1ccc(O)cc1
0.0254

Give me measured composite z-score, please, for this compound: N#Cc1ccc(-c2cccc(=O)o2)cc1
-0.0794

Give me measured composite z-score, please, for this compound: C=CCN1C(=O)[C@]2(O[C@H](CCn3cc([C@H](O)c4ccccc4)nn3)[C@@H]([Si](C)(C)c3ccc(OC)cc3)[C@@H]2C)c2cc(NC(=O)c3ccc(OC)cc3)ccc21
-0.152

Give me measured composite z-score, please, for this compound: C=CCC(OC(C)=O)[C@@H]1[C@@H](N(Cc2ccc(-c3cccc(C(F)(F)F)c3)o2)C(=O)c2ccc(-c3ccccc3)cc2)c2cc(OCCCO)ccc2N1C(=O)c1ccc2ccccc2c1 (some centres undefined)
-0.0828

Give me measured composite z-score, please, for this compound: C=C(CCCC)/C(=C/C[C@H](OC(=O)c1ccncc1)c1cccc(OCCO)c1)c1cnc2ccccc2c1
-0.065

Give me measured composite z-score, please, for this compound: COc1ccc(C(=O)Nc2cccc(CN3C(=O)[C@]4(O[C@H](CC(=O)N5Cc6ccccc6C[C@H]5CO)[C@@H]([Si](C)(C)c5ccc(OC)cc5)[C@@H]4C)c4ccccc43)c2)cc1
-0.027

Give me measured composite z-score, please, for this compound: C=C(COC)/C(=C/C[C@@H](OC(C)=O)c1ccccc1OCCO)c1cnc2ccccc2c1
-0.0828

Give me measured composite z-score, please, for this compound: CN(C)c1ccc(C(O)C2C=CC3C(=O)N(Cc4ccccc4)C(=O)C3N2n2cnnc2)cc1 (centres undefined)
-0.0649

Give me measured composite z-score, please, for this compound: NC(=O)N1C(=O)C2C(C1=O)C1C=C(CCCO)C2C(c2ccc(CN3CCCC3)cc2)N1Cc1cc2c(cc1Br)OCO2 (centres undefined)
-0.211

Give me measured composite z-score, please, for this compound: CC[C@@H]1C=C(C(=O)O)[C@H](c2ccc(OC)cc2)N1S(=O)(=O)c1ccc(C)cc1
-0.0828

Give me measured composite z-score, please, for this compound: COc1ccc(C(O)C2C=CC3C(=O)N(C)C(=O)C3N2N(c2ccccc2)c2ccccc2)cc1 (centres undefined)
-0.111

Give me measured composite z-score, please, for this compound: O=C1N(Cc2ccccc2)c2ccccc2C[C@@]12COC(c1ccc(OCCCO)cc1)=N2
-0.0238

Give me measured composite z-score, please, for this compound: CCOC(=O)C[C@H]1[C@H](OC(=O)Cc2ccc3c(c2)OCO3)[C@@H](NC(=O)c2ccc3ccccc3n2)c2cc(OCCCO)ccc2N1C(=O)Cc1ccc(OC)cc1
-0.103
